assay.protocol: Lipophilicity, log P of the compound
Type: physicochemical
run.parameters: octanol/water
test.readout: logP
Number, no unit, nothing else.

Q. What value of measured logP is listed for CCOC(=O)c1cn(C2CC2)c2cc(N3CCN(S(=O)(=O)c4ccc(C(F)(F)F)cc4)CC3)c(F)cc2c1=O ?
A. 4.29

Q. Let us now turn to CCOC(=O)c1cn(C2CC2)c2cc(N3CCN(c4c5ccc(Cl)cc5nc5ccc(OC)cc45)CC3)c(F)cc2c1=O
A. 6.31

Q. Let us now turn to CCOC(=O)c1cn(C2CC2)c2cc(N3CCN(C(=O)/C=C/c4ccccc4)CC3)c(F)cc2c1=O
A. 3.81

Q. Let us now turn to CCOC(=O)c1cn(C2CC2)c2cc(N3CCN(c4ccnc5cc(Cl)ccc45)CC3)c(F)cc2c1=O
A. 5.02

###

Test system: Plasmodium falciparum
assay.protocol: Antimalarial activity against CQ-resistant Plasmodium falciparum W2 infected in human erythrocytes after 96 hrs by SYBR Green1 dye based fluorescence assay
Format: functional, organism-based
run.parameters: W2, 96 h
test.readout: IC50 (µM)
# unit: µM | format: bare number

Q. For Plasmodium falciparum, provide IC50 of O=C(O)c1cn(C2CC2)c2cc(N3CCNCC3)c(F)cc2c1=O please.
A. 22.9

Q. Let us now turn to CCOC(=O)c1cn(C2CC2)c2cc(N3CCN(c4ccnc5cc(Cl)ccc45)CC3)c(F)cc2c1=O
A. 0.0306

Q. Let us now turn to CCOC(=O)c1cn(C2CC2)c2cc(N3CCN(S(=O)(=O)c4ccc(C(F)(F)F)cc4)CC3)c(F)cc2c1=O
A. 0.0334

###

Answer each item with its documented pIC50.
System: Plasmodium falciparum
assay.protocol: Antimalarial activity against CQ-resistant Plasmodium falciparum NF54-R assessed as inhibition of parasite growth
Assay type: functional, organism-based
pIC50: −log10 of the molar value.

Q. What value of measured pIC50 is listed for Cc1c(F)c(N2CCNC(C)C2)cc2c1c(=O)c(C(=O)O)cn2C1CC1 (stereo not drawn) [GREPAFLOXACIN] ?
A. < 5.00

Q. Let us now turn to COc1c(N2C[C@@H]3CCCN[C@@H]3C2)c(F)cc2c(=O)c(C(=O)O)cn(C3CC3)c12 [MOXIFLOXACIN]
A. < 5.00

Q. Let us now turn to COc1c(N2CCNC(C)C2)c(F)cc2c(=O)c(C(=O)O)cn(C3CC3)c12 (stereo not drawn) [GATIFLOXACIN]
A. < 5.00
